- target.under.test: T1, recombinant His-tagged human FRα (ACROBiosystems) (human, UniProt P15328 25-233)
- T1 construct: also called hFRα; hFRα antigen; not shown: His tag
- assay.overview: BLI (Octet RED96) as in Example 8: antibody captured, His-tagged hFRα as analyte, mean of n=2
pKd: −log10 of the molar value.
binders and their reported pKd
measured.quantity: pKd

{"binder": "v36167 (antibody, human IgG1, kappa, V domains shown) VH: EVQLLESGGGLVQPGGSLRLSCAVSGFSLSSYGVSWVRQAPGKGLEWIGAVNSGGSAYYADSFKGRSTISRDNSKNTVYLQMNSLRAEDTAVYYCARSGSGYPMDYLAIWGQGTLVTVSS VL: DYQMTQSPSSVSASVGDRVTITCRASQSIWYWLAWYQQKPGKAPKLLIYEASTLASGVPSRFSGSGSGTDFTLTISSVQPEDAATYYCQQGYGRWHILNIFGGGTKVEVKR", "measured.quantity": "pKd", "recorded.result": 8.14}
{"binder": "v35305 (antibody, human IgG1, kappa, V domains shown) VH: EVQLLESGGGLVQPGGSLRLSCAVSGFSLSLYGVSWVRQAPGKGLEWIGAVNSGGSAYYADSVKGRSTISRDNSKNTVYLQMNSLRAEDTAVYYCARSGSGYPMDYLAIWGQGTLVTVSS VL: DYQMTQSPSSVSASVGDRVTITCRASQSIWYWLAWYQQKPGKAPKLLIYEASTLASGVPSRFSGSGSGTDFTLTISSVQPEDAATYYCQQGYGRSNVDNIFGGGTKVEVKR", "measured.quantity": "pKd", "recorded.result": 7.97}
{"binder": "v35342 (antibody, human IgG1, kappa, V domains shown) VH: EVQLLESGGGLVQPGGSLRLSCAVSGFSLSLYGVSWVRQAPGKGLEWIGSLNSGGSAYYADSVKGRSTISRDNSKNTVYLQMNSLRAEDTAVYYCARSGSGYPMDYLAIWGQGTLVTVSS VL: DYQMTQSPSSVSASVGDRVTITCRASQSIWYWLAWYQQKPGKAPKLLIYEASTLASGVPSRFSGSGSGTDFTLTISSVQPEDAATYYCQQGYGRWHILNIFGGGTKVEVKR", "measured.quantity": "pKd", "recorded.result": 8.39}
{"binder": "v35358 (antibody, human IgG1, kappa, V domains shown) VH: EVQLLESGGGLVQPGGSLRLSCAVSGFSLSSYGVSWVRQAPGKGLEWIGAVNSGGSAYYADSFKGRSTISRDNSKNTVYLQMNSLRAEDTAVYYCARSGSGYPMDYHPIWGQGTLVTVSS VL: DYQMTQSPSSVSASVGDRVTITCRASQSIWYWLAWYQQKPGKAPKLLIYEASTLASGVPSRFSGSGSGTDFTLTISSVQPEDAATYYCQQGYGRWHILNIFGGGTKVEVKR", "measured.quantity": "pKd", "recorded.result": 8.14}
{"binder": "v35354 (antibody, human IgG1, kappa, V domains shown) VH: EVQLLESGGGLVQPGGSLRLSCAVSGFSLSLYGVSWVRQAPGKGLEWIGAVNSGGSAYYADSFKGRSTISRDNSKNTVYLQMNSLRAEDTAVYYCARSGSGYPMDYLAIWGQGTLVTVSS VL: DYQMTQSPSSVSASVGDRVTITCRASQSIWYWLAWYQQKPGKAPKLLIYEASTLASGVPSRFSGSGSGTDFTLTISSVQPEDAATYYCQQGYGRWHILNIFGGGTKVEVKR", "measured.quantity": "pKd", "recorded.result": 8.50}
